# ASSAY_METHOD_TEXT: solvent given as SMILES
# CONDITION_SUMMARY: in C1COCCO1
MEASUREMENT_NAME: log10 of fluorescence lifetime (log10 of the value in ns)
Recall that a logarithmic scale is used here: each number is log10 of fluorescence lifetime in ns.

Use these answered entries as a reference point.
- COMPOUND: "NNC(=O)NNN1C(=O)c2cc(S(=O)(=O)[O-])cc3c(N)c(S(=O)(=O)[O-])cc(c23)C1=O"
  log10 of fluorescence lifetime: 0.53
- COMPOUND: "Cc1ccc(C2=C3C=CC(C#Cc4ccccc4)=[N+]3[B-](F)(F)n3c(C#Cc4ccccc4)ccc32)cc1"
  log10 of fluorescence lifetime: 0.81

State recorded log10 of fluorescence lifetime for all listed compounds.
1. COc1ccc(C#Cc2ccc(-c3nn[nH]n3)cc2)cc1OC
2. COc1ncccc1B(O)O
3. Cc1ccc(C2=C3C=CC(C#Cc4ccccc4)=[N+]3[B-](F)(F)n3c(Cl)ccc32)cc1
4. O=C1c2ccc3c4ccc5c6c(ccc(c7ccc(c2c37)C(=O)N1c1ccncc1)c64)C(=O)N(c1ccncc1)C5=O
5. N#Cc1coc2ccccc2c1=O
6. N#Cc1cccc2cc[nH]c12
7. COc1cc(N(c2ccccc2)c2ccccc2)ccc1C=C(C#N)C#N
8. COC(=O)C(Cc1ccc2oc(-c3ccc(Nc4ccccc4)cc3)nc2c1)NC(=O)OC(C)(C)C (stereo not given)

Reply:
-0.09
-0.38
0.65
0.51
0.56
0.88
-1.40
0.26

###

Give measured fluorescence lifetime for each item. Keep answers brief.
# ASSAY_METHOD_TEXT: solvent given as SMILES
# CONDITION_SUMMARY: in CO
Numbers only, in ns.

- COMPOUND: "COc1cnc(-c2cc[n+](C3=C(F)C(F)(F)C(F)(F)[C-]3F)cc2)s1"
  UNIT_INFO: "ns"
  fluorescence lifetime: 0.54
- COMPOUND: "C(C#Cc1ccc2ccc3cccc4ccc1c2c34)#Cc1cccc2ccccc12"
  UNIT_INFO: "ns"
  fluorescence lifetime: 1.1
- COMPOUND: "COC(=O)C(NC(=O)OC(C)(C)C)c1ccc2oc(-c3ccc(OC(=O)c4ccccc4)cc3O)nc2c1 (configuration not stated)"
  UNIT_INFO: "ns"
  fluorescence lifetime: 0.027
- COMPOUND: "C#CCNC1=C2C(C)=CC(C)=[N+]2[B-](F)(F)n2c(C)cc(C)c21"
  UNIT_INFO: "ns"
  fluorescence lifetime: 0.518
- COMPOUND: "CCN1C(=CC2=C([O-])C(=CC3=[N+](CC)c4ccccc4C3(C)C)C2=O)C(C)(C)c2ccccc21"
  UNIT_INFO: "ns"
  fluorescence lifetime: 0.2
- COMPOUND: "c1cc2ccc3cccc4c(-c5cc(-c6nccs6)nc(-c6nccs6)c5)cc(c1)c2c34"
  UNIT_INFO: "ns"
  fluorescence lifetime: 3.2
- COMPOUND: "CCCCCCCCN1c2ccc(C#Cc3ccc(C(F)(F)F)cc3)cc2Sc2cc(C=O)ccc21"
  UNIT_INFO: "ns"
  fluorescence lifetime: 4.04
- COMPOUND: "CC1(C)C(/C=C/C2=C(Oc3ccc(CCN=C=S)cc3)C(=C/C=C3/N(CCCS(=O)(=O)[O-])c4ccccc4C3(C)C)/CCC2)=[N+](CCCS(=O)(=O)[O-])c2ccccc21"
  UNIT_INFO: "ns"
  fluorescence lifetime: 0.873

Can you give me fluorescence lifetime for all of these, one by one?
1. CCC1=C(C)C2=C(C)c3c(C)c(CC)c(C)n3[B-](F)(F)[N+]2=C1C
2. CCCN1C(=O)C(=CC=CC=C2Oc3ccccc3N2CCCS(=O)(=O)[O-])C(=O)N(CCC)C1=S
3. COC(=O)C(NC(=O)OC(C)(C)C)c1ccc2oc(-c3cc(OC)c(OC)cc3OC)nc2c1 (configuration not stated)
4. Nc1cc(N)cc(-c2nc3ccccc3s2)c1

Reply:
6.1
0.288
2.03
2.07

###

# ASSAY_METHOD_TEXT: solvent given as SMILES
# CONDITION_SUMMARY: in CO
Mark 1.0 for reported fluorescence lifetime of 1 ns or greater; mark 0.0 for anything smaller.

Would you please look over these solved cases?
- COMPOUND: "COc1ncccc1B(O)O"
  ASSIGNED_CLASS: 1.0
- COMPOUND: "Cc1ccc2ccc3cccc4ccc1c2c34"
  ASSIGNED_CLASS: 1.0
- COMPOUND: "N#Cc1ccc2c(c1)CCc1nc(-c3ccc([N+](=O)[O-])cc3)c3c(c1-2)CCc1cc(C#N)ccc1-3"
  ASSIGNED_CLASS: 0.0

Ask: Could you please find out whether C#Cc1ccc2ccc3cccc4ccc1c2c34 has fluorescence lifetime that meets 1 ns or exceeds it?
Reply: 1.0

Ask: Same lookup for CCN(CC)c1ccc2c(C)cc(=O)oc2c1 , please.
Reply: 1.0

###

# ASSAY_METHOD_TEXT: solvent given as SMILES
# CONDITION_SUMMARY: in Cc1ccccc1
Assign fluorescence lifetime to each entry below.
Remember to follow the number with its unit.

- MOLECULE: "Nc1ccc2c3c(cccc13)C(=O)c1ccccc1-2"
  MEASUREMENT_NAME: "fluorescence lifetime"
  RESULT_VALUE: "9.2 ns"

The following molecules each have a reported value; give each one's fluorescence lifetime.
1. CCOc1cc2c(cc1/C=C/C(=C(C#N)C#N)c1ccccc1)c1ccccc1n2CC
2. O=[N+]([O-])c1ccc(F)cc1C1CC(c2cccc3ccccc23)=NN1c1ccccc1 (stereo not drawn)
3. CC1=[N+]2C(=C(c3ccccc3)c3ccc(C)n3[B-]2(F)F)C=C1
4. N#Cc1c(-n2c3ccccc3c3ccccc32)c(-n2c3ccccc3c3ccccc32)c(-n2c3ccccc3c3ccccc32)c(-n2c3ccc(-c4ccccc4)cc3c3cc(-c4ccccc4)ccc32)c1-n1c2ccccc2c2ccccc21
5. Cc1cc(C)c(B(c2ccccc2-n2c3ccccc3c3ccccc32)c2c(C)cc(C)cc2C)c(C)c1
6. CC1(C)c2ccccc2N(c2ccc(C(=C(C#N)C#N)c3ccc(N4c5ccccc5C(C)(C)c5ccccc54)cc3)cc2)c2ccccc21
7. N#Cc1cc(C#N)c(-n2c3ccccc3c3ccccc32)cc1-n1c2ccccc2c2ccccc21

Reply:
6.76 ns
3.29 ns
2.65 ns
7 ns
38 ns
3.1 ns
9 ns

###

# ASSAY_METHOD_TEXT: solvent given as SMILES
# CONDITION_SUMMARY: in CCCCCCCCCCO
MEASUREMENT_NAME: fluorescence lifetime (ns)
Give bare numbers, in ns.

These recorded examples may help you get a feel for the data.
- CPD_SMILES: "O=C1CCCc2c1[nH]c1cc3c(cc21)OCO3"
  fluorescence lifetime [ns]: 1.28
- CPD_SMILES: "CCC1(CC)c2cc(-c3ccc(C(C)(C)C)cc3)ccc2-c2ccc(-c3ccc4c(c3)C(CC)(CC)c3cc(-c5ccc6c(c5)C(CC)(CC)c5cc(-c7ccc(C(C)(C)C)cc7)ccc5-6)ccc3-4)cc21"
  fluorescence lifetime [ns]: 0.64
- CPD_SMILES: "CCC1(CC)c2cc(-c3ccc4c(c3)C(CC)(CC)c3cc(C(C)(C)C)ccc3-4)ccc2-c2ccc(-c3ccc4c(c3)C(CC)(CC)c3cc(C(C)(C)C)ccc3-4)cc21"
  fluorescence lifetime [ns]: 0.8
- CPD_SMILES: "CCC1(CC)c2cc(-c3ccc(-c4ccc5c(c4)C(CC)(CC)c4cc(C(C)(C)C)ccc4-5)cc3)ccc2-c2ccc(C(C)(C)C)cc21"
  fluorescence lifetime [ns]: 0.79
- CPD_SMILES: "CCC1=C(C)C2=C(C)c3c(C)c(CC)c(C)n3[B-](F)(F)[N+]2=C1C"
  fluorescence lifetime [ns]: 5.71

Shifting focus to the molecule that follows.
Ask: Given COc1cc2[nH]c3c(c2cc1OCC(=O)O)CCCC3=O , state its recorded fluorescence lifetime.
Reply: 1.17

###

# ASSAY_METHOD_TEXT: solvent given as SMILES
# CONDITION_SUMMARY: in ClC(Cl)Cl
MEASUREMENT_NAME: fluorescence lifetime (ns)
Answers are plain numbers, in ns.

- CPD_SMILES: "CCCCCCCCCCCCCCCCOc1cc(C#Cc2ccc3ccccc3c2-c2c(C#Cc3cc(OCCCCCCCCCCCCCCCC)c(C#Cc4ccc(C=C(C#N)C#N)cc4)cc3OCCCCCCCCCCCCCCCC)ccc3ccccc23)c(OCCCCCCCCCCCCCCCC)cc1C#Cc1ccc(C=C(C#N)C#N)cc1"
  fluorescence lifetime [ns]: 2.35
- CPD_SMILES: "COc1cc2cc(OC)c(C#Cc3ccc([N+](=O)[O-])cc3)cc2cc1C#Cc1ccc([N+](=O)[O-])cc1"
  fluorescence lifetime [ns]: 0.9
- CPD_SMILES: "CCCCCCC(CCCCCC)N1C(=O)c2cccc3c(-c4ccc(-c5ccc(OC)cc5)cc4)ccc(c23)C1=O"
  fluorescence lifetime [ns]: 2.93
- CPD_SMILES: "C(#Cc1ccccc1)C(C#Cc1ccccc1)=Cc1ccc2cc(C=C(C#Cc3ccccc3)C#Cc3ccccc3)ccc2c1"
  fluorescence lifetime [ns]: 1.1
- CPD_SMILES: "CC(C)(C)c1ccc(Oc2cc3c4c(cc(Oc5ccc(C(C)(C)C)cc5)c5c6c(Oc7ccc(C(C)(C)C)cc7)cc7c8c(cc(Oc9ccc(C(C)(C)C)cc9)c(c2c45)c86)C(=O)N(Cc2ccccc2)C7=O)C(=O)N(Cc2ccccc2)C3=O)cc1"
  fluorescence lifetime [ns]: 6.3
- CPD_SMILES: "CCCCCCCCN1c2ccccc2Sc2cc(/C=C/c3ccc(N(c4ccc(/C=C/c5ccc6c(c5)Sc5ccccc5N6CCCCCCCC)cc4)c4ccc(/C=C/c5ccc(/C=C/c6ccc(N(c7ccc(/C=C/c8ccc9c(c8)Sc8ccccc8N9CCCCCCCC)cc7)c7ccc(/C=C/c8ccc9c(c8)Sc8ccccc8N9CCCCCCCC)cc7)cc6)c6nsnc56)cc4)cc3)ccc21"
  fluorescence lifetime [ns]: 2.25
- CPD_SMILES: "N#CCc1ccccc1-c1cc2ccccc2oc1=O"
  fluorescence lifetime [ns]: 1.4
- CPD_SMILES: "CCOc1cc2c(cc1/C=C/C(=C(C#N)C#N)c1ccccc1)c1ccccc1n2CC"
  fluorescence lifetime [ns]: 7.78
- CPD_SMILES: "Cc1ccc(/C2=c3\\cc/c(o3)=C(\\c3ccc(C)cc3)c3ccc([nH]3)-c3ccc4n3[P-](=O)(=O)[N+]3=C(C=CC3=C4c3cccs3)c3ccc2[nH]3)cc1"
  fluorescence lifetime [ns]: 4.3
- CPD_SMILES: "O=C1CCCC2=C1CC1=C(CCCC1=O)N2NC(=O)c1ccc(O)cc1"
  fluorescence lifetime [ns]: 8.2

Batch request: fluorescence lifetime per item, same order as input.
1. CC1=CC(c2ccc3cc(N(C)C)ccc3c2)=[O+][B-](F)(F)O1
2. CCN1C(=CC2=C([O-])C(=Cc3sc4ccccc4[n+]3CC)C2=O)Sc2ccccc21
3. CCN(CC)c1ccc2cc3c([o+]c2c1)/C(=C/Nc1ccccc1)CCC3
4. CN1C(=CC2=C([O-])C(=CC3=[N+](C)c4ccc(Cl)cc4C3(C)C)C2=O)C(C)(C)c2cc(Cl)ccc21
5. CN1C(=CC=Cc2nc3nc4ccccc4nc3s2)C(C)(C)c2ccccc21
6. COCCOCCOCCN1C(=O)c2cc(NCCOCCO)c3c4c(cc(NCCOCCO)c(c24)C1=O)C(=O)N(CCOCCOCCOC)C3=O

Reply:
1: 3.46; 2: 4.05; 3: 2.65; 4: 1.42; 5: 1.08; 6: 9.6

For every item in the list below, what is its measured fluorescence lifetime?
1. CCCCCCOc1ccc(N(c2ccc(OCCCCCC)cc2)c2ccc(-c3sc(-c4ccc(N(c5ccc(OCCCCCC)cc5)c5ccc(OCCCCCC)cc5)cc4)c4nc(CC)c(CC)nc34)cc2)cc1
2. O=Cc1ccc(C#CC(C#Cc2ccc(C=O)o2)=Cc2ccc(C=C(C#Cc3ccc(C=O)o3)C#Cc3ccc(C=O)o3)cc2)o1
3. Cc1ccc(S(=O)(=O)/N=c2\oc3cccc4c5c(-c6ccccc6)oc6cccc(c(c2-c2ccccc2)c34)c65)cc1
4. COc1cnc(-c2cc[n+](C3=C(F)C(F)(F)C(F)(F)[C-]3F)cc2)s1
5. CCCCCCCC(=O)Oc1ccc2c3cccc4c(OC(=O)CCCCCCC)ccc(c5cccc1c52)c43

Reply:
[1.09, 0.6, 3.4, 2.85, 4.16]

Parameter requested: fluorescence lifetime. Apply to each item below.
1. CC[N+](CC)=c1ccc2c(-c3ccccc3C(=O)O)c3cc4c(-c5ccccc5C(=O)O)c5ccc(=[N+](CC)CC)cc-5oc4cc3oc-2c1
2. COc1ccc(-c2cc(-c3ccc(OC)cc3)c3c(N)nc(N4CCCC4)c(C#N)c3n2)cc1
3. COc1ccc(C2=C3C(C)=CC(C)=[N+]3[B-](F)(F)n3c(/C=C/c4ccc(N(C)C)cc4)cc(C)c32)cc1

Reply:
0.72
11.6
3.47

Source of measurements: the Deep4Chem optical property database
